Target: 5-HT2c (Homo sapiens)
Construct: purchased Euroscreen/BioSignal Packard Inc
Sequence (P28335 33-458): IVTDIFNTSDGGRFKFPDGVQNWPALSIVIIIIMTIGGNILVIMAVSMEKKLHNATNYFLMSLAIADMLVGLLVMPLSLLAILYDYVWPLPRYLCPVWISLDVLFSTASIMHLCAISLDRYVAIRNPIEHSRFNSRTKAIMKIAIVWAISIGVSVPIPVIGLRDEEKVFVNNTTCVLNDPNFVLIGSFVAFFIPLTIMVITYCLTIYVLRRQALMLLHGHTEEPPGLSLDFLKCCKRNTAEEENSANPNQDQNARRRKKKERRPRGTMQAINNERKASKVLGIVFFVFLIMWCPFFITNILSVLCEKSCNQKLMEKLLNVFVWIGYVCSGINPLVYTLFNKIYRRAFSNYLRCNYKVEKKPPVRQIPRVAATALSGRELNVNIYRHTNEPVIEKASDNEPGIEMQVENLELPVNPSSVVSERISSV
Test: Radioligand binding, 5-HT2c ([3H]Mesulergine)
Settings: Table 4; [3H]Mesulergine 1 nM; read-out: Binding affinity, IC50 (nM) 5-HT2c
Quick list: IC50 per entry.
READOUT LABEL: IC50 (nM)

# MOLECULE, TARGET DESC, READOUT LABEL, MEASUREMENT QUALIFIER, MEASURED VALUE
rows = [
    ("CC1(c2ccc(O)cc2)C(=O)c2c(N3CCNCC3)cc(Cl)cc2N(CC2CCCCC2)C1=O (stereo not drawn) [Example 49]", "5-HT2c (Homo sapiens)", "IC50", "=", 7530),
    ("CCN1C(=O)C(C)(c2ccc(OC)cc2)C(=O)c2c(N3CCNCC3)cc(Cl)cc21 (stereo not drawn) [Example 46]", "5-HT2c (Homo sapiens)", "IC50", "=", 9110),
    ("COc1ccc(C2(C)C(=O)c3c(N4CCNCC4)cc(Cl)cc3N(Cc3cccc(N)c3)C2=O)cc1 (stereo not drawn) [Example 25]", "5-HT2c (Homo sapiens)", "IC50", "=", 7600),
    ("COc1ccc(C2(C)C(=O)c3c(N4CCNCC4)cc(Cl)cc3N(Cc3ccc4ccccc4n3)C2=O)cc1 (stereo not drawn) [Example 44]", "5-HT2c (Homo sapiens)", "IC50", "=", 7690),
    ("CC1(c2ccc(O)cc2)C(=O)c2c(N3CCNCC3)cc(Cl)cc2N(Cc2ccccc2O)C1=O (stereo not drawn) [Example 30]", "5-HT2c (Homo sapiens)", "IC50", "=", 9450),
    ("CC1(c2ccc(O)cc2)C(=O)c2c(N3CCNCC3)cc(Cl)cc2N(Cc2cccc(Br)c2)C1=O (stereo not drawn) [Example 34]", "5-HT2c (Homo sapiens)", "IC50", "=", 7030),
    ("CC1(c2ccc(O)cc2)C(=O)c2c(N3CCNCC3)cc(Cl)cc2N(Cc2cccnc2)C1=O (stereo not drawn) [Example 38]", "5-HT2c (Homo sapiens)", "IC50", "=", 9140),
    ("COc1ccc(CN2C(=O)C(C)(c3ccc(OC)cc3)C(=O)c3c(N4CCNCC4)cc(Cl)cc32)cc1 (stereo not drawn) [Example 31]", "5-HT2c (Homo sapiens)", "IC50", "=", 7950),
    ("CC1(c2ccc(O)cc2)C(=O)c2c(N3CCNCC3)cc(Cl)cc2N(Cc2ccccc2Br)C1=O (stereo not drawn) [Example 36]", "5-HT2c (Homo sapiens)", "IC50", "=", 7160),
    ("COc1ccc(C2(C)C(=O)c3c(N4CCNCC4)cc(Cl)cc3N(Cc3ccccc3)C2=O)cc1 (racemic) [Example 13]", "5-HT2c (Homo sapiens)", "IC50", "=", 437),
    ("CC1(c2ccc(O)cc2)C(=O)c2c(N3CCNCC3)cc(Cl)cc2N(Cc2cccc(O)c2)C1=O (stereo not drawn) [Example 28]", "5-HT2c (Homo sapiens)", "IC50", ">", 10000),
    ("COc1cccc(C2(C)C(=O)c3c(N4CCNCC4)cc(Cl)cc3N(Cc3ccccc3)C2=O)c1 (stereo not drawn) [Example 50]", "5-HT2c (Homo sapiens)", "IC50", "=", 7470),
    ("COc1ccc(C2(C)C(=O)c3c(N4CCNCC4)cc(Cl)cc3N(Cc3cccc(OC)c3)C2=O)cc1 (stereo not drawn) [Example 27]", "5-HT2c (Homo sapiens)", "IC50", ">", 1000),
    ("COc1ccc(C2(C)C(=O)c3c(N4CCNCC4)cc(Cl)cc3N(Cc3ccc4ccccc4c3)C2=O)cc1 (stereo not drawn) [Example 39]", "5-HT2c (Homo sapiens)", "IC50", ">", 1000),
    ("CC1(c2ccc(Cl)cc2)C(=O)c2c(N3CCNCC3)cc(Cl)cc2N(Cc2ccccc2)C1=O (stereo not drawn) [Example 19]", "5-HT2c (Homo sapiens)", "IC50", "=", 6910),
]
